- Tested on: 317291-083-R-J1-PDC complex spheroids, viability
- METHOD: Anticancer human tumor 317291-083-R-J1-PDC patient-derived soft tissue sarcoma cell line growth inhibition [GQUAD]; active = viability on the fitted dose curve at most 10% of control; inactive = the rest
- CONDITION SUMMARY: second compound 0.1 µM; first compound 0.0316 µM
Outcomes you can answer with include only these: active, inactive

Solved entries (count: 2):
| COMPOUND | CLASS NAME |
| --- | --- |
| CCc1c2c(nc3ccc(O)cc13)-c1cc3c(c(=O)n1C2)COC(=O)[C@]3(O)CC + Cc1cnc(CNC(=O)c2c(=O)c3ccc(N4CCCN(C)CC4)nc3n3c2sc2ccccc23)cn1 | active |
| COc1cc(C2c3cc4c(cc3C(OC3OC5COC(C)OC5C(O)C3O)C3COC(=O)C23)OCO4)cc(OC)c1O (stereo not drawn) + Cc1cnc(CNC(=O)c2c(=O)c3ccc(N4CCCN(C)CC4)nc3n3c2sc2ccccc23)cn1 | inactive |

We now examine a further compound.
Q: What is the recorded call for this compound in the test? CC(=O)O[C@H]1C(=O)[C@@]2(C)[C@H]([C@H](OC(=O)c3ccccc3)[C@]3(O)C[C@H](OC(=O)[C@H](O)[C@@H](NC(=O)c4ccccc4)c4ccccc4)C(C)=C1C3(C)C)[C@]1(OC(C)=O)CO[C@@H]1C[C@@H]2O + Cc1cnc(CNC(=O)c2c(=O)c3ccc(N4CCCN(C)CC4)nc3n3c2sc2ccccc23)cn1
Result: inactive

###

- System: 317291-083-R-J1-PDC complex spheroids, viability
- METHOD: Anticancer human tumor 317291-083-R-J1-PDC cell line growth inhibition [GQUAD]; active = viability on the fitted dose curve at most 10% of control; inactive = the rest
- CONDITION SUMMARY: second compound 3.16 µM; first compound 0.1 µM
Hi there, use one of these labels in your reply, thanks! active, inactive

Observe how each entry below is paired with its result.
| MOLECULE | CLASS NAME |
| --- | --- |
| COc1ncnc(C2CC2)c1-c1ncc2cnn(Cc3ccc(-c4nc(C(F)(F)F)cn4C(C)C)cc3)c2n1 + CN(C)c1ccc(Nc2c3ccc(NC(=O)CCN4CCCC4)cc3nc3cc(NC(=O)CCN4CCCC4)ccc23)cc1 | active |
| CC1COCCN1c1cc(C2(O)CC3CCC(C2)O3)c2cnn(-c3ccn[nH]3)c2n1 (stereo unspecified) + CN(C)c1ccc(Nc2c3ccc(NC(=O)CCN4CCCC4)cc3nc3cc(NC(=O)CCN4CCCC4)ccc23)cc1 | active |
| Cc1cccc(N(C)C(=O)C2C(O)CCN2c2nc(C)cc(C(F)(F)F)c2C#N)c1 (stereo unspecified) + CN(C)c1ccc(Nc2c3ccc(NC(=O)CCN4CCCC4)cc3nc3cc(NC(=O)CCN4CCCC4)ccc23)cc1 | inactive |

Q: Please share the test call associated with CC1COCCN1c1cc(C2(O)CC3CCC(C2)O3)c2cnn(-c3ccn[nH]3)c2n1 (stereo unspecified) + Cc1[nH]c2ccc(F)cc2c1-c1nc2c3cccnc3c3ncccc3c2[nH]1 .
Result: inactive

Q: Query: recorded result category for CC(C)(O)C1CCC(Nc2ccc3ncc(-c4cccc(C(F)(F)F)c4)n3n2)CC1 (stereo unspecified) + Cc1cnc(CNC(=O)c2c(=O)c3ccc(N4CCCN(C)CC4)nc3n3c2sc2ccccc23)cn1 in this test
Result: inactive

Q: What call does the record list for COc1cccc2c1C(=O)c1c(O)c3c(c(O)c1C2=O)CC(O)(C(=O)CO)CC3OC1CC(N)C(O)C(C)O1 (stereo unspecified) + Cc1cnc(CNC(=O)c2c(=O)c3ccc(N4CCCN(C)CC4)nc3n3c2sc2ccccc23)cn1 ?
Result: inactive

###

- System: 317291-083-R-J1-PDC complex spheroids, viability
- METHOD: Anticancer human tumor 317291-083-R-J1-PDC cell line growth inhibition [GQUAD];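 note: spheroids exposed to compounds for one week before readout; percent viability relative to DMSO vehicle wells taken as 100%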
- CONDITION SUMMARY: second compound 0.316 µM; first compound 3.16 µM; stronger effect = lower value
OBSERVATION TYPE: viability, T/C (%)
Could you give me the number in %? Just the number is fine.

Q: Would you mind telling me what viability, T/C value was observed for CC1COCCN1c1cc(-c2ccnn2C)c2ccnc(-c3ccn[nH]3)c2n1 (centres undefined) + Cc1[nH]c2ccc(F)cc2c1-c1nc2c3cccnc3c3ncccc3c2[nH]1 ?
Result: 11.5

Q: Give the measured viability, T/C of CC1COCCN1c1cc(-c2ccnn2C)c2ccnc(-c3ccn[nH]3)c2n1 (centres undefined) + CN(C)c1ccc(Nc2c3ccc(NC(=O)CCN4CCCC4)cc3nc3cc(NC(=O)CCN4CCCC4)ccc23)cc1 .
Result: 15.5

Q: Given the entry CC(=O)O[C@H]1C(=O)[C@@]2(C)[C@H]([C@H](OC(=O)c3ccccc3)[C@]3(O)C[C@H](OC(=O)[C@H](O)[C@@H](NC(=O)c4ccccc4)c4ccccc4)C(C)=C1C3(C)C)[C@]1(OC(C)=O)CO[C@@H]1C[C@@H]2O + Cc1[nH]c2ccc(F)cc2c1-c1nc2c3cccnc3c3ncccc3c2[nH]1 , report its measured viability, T/C.
Result: 13.7

Q: # input molecule: CC(=O)O[C@H]1C(=O)[C@@]2(C)[C@H]([C@H](OC(=O)c3ccccc3)[C@]3(O)C[C@H](OC(=O)[C@H](O)[C@@H](NC(=O)c4ccccc4)c4ccccc4)C(C)=C1C3(C)C)[C@]1(OC(C)=O)CO[C@@H]1C[C@@H]2O + CN(C)c1ccc(Nc2c3ccc(NC(=O)CCN4CCCC4)cc3nc3cc(NC(=O)CCN4CCCC4)ccc23)cc1 ; wanted: its viability, T/C
Result: 10.2

###

- Tested on: 317291-083-R-J1-PDC complex spheroids, viability
- METHOD: Anticancer human tumor 317291-083-R-J1-PDC cell line growth inhibition [GQUAD]; active means viability on the fitted dose curve at most 10% of control; inactive means the rest;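 note: spheroids exposed to compounds for one week before readout; percent viability relative to DMSO vehicle wells taken as 100%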
- CONDITION SUMMARY: second compound 10 µM; first compound 0.316 µM
// classify into y (active), n (inactive)

Sample answers from the record:
| COMPOUND | CLASS NAME |
| --- | --- |
| COc1cc(C2c3cc4c(cc3C(OC3OC5COC(C)OC5C(O)C3O)C3COC(=O)C23)OCO4)cc(OC)c1O (stereo unspecified) + CN(C)c1ccc(Nc2c3ccc(NC(=O)CCN4CCCC4)cc3nc3cc(NC(=O)CCN4CCCC4)ccc23)cc1 | y |
| Nc1ccn(C2OC(CO)C(O)C2(F)F)c(=O)n1 (stereo unspecified) + Cc1[nH]c2ccc(F)cc2c1-c1nc2c3cccnc3c3ncccc3c2[nH]1 | n |
| CC(C)(O)C1CCC(Nc2ccc3ncc(-c4cccc(C(F)(F)F)c4)n3n2)CC1 (stereo unspecified) + CN(C)c1ccc(Nc2c3ccc(NC(=O)CCN4CCCC4)cc3nc3cc(NC(=O)CCN4CCCC4)ccc23)cc1 | y |
| O=c1[nH]cc(F)c(=O)[nH]1 + Cc1cnc(CNC(=O)c2c(=O)c3ccc(N4CCCN(C)CC4)nc3n3c2sc2ccccc23)cn1 | n |

Q: Look up the recorded call for Cc1cccc(N(C)C(=O)C2C(O)CCN2c2nc(C)cc(C(F)(F)F)c2C#N)c1 (stereo unspecified) + Cc1[nH]c2ccc(F)cc2c1-c1nc2c3cccnc3c3ncccc3c2[nH]1 in this test.
Result: n

Q: Could you check what this test reported for C#Cc1c(F)ccc2cc(O)cc(-c3ncc4c(N5CC6CCC(C5)N6)nc(OCC56CCCN5CC(F)C6)nc4c3F)c12 (stereo unspecified) + Cc1[nH]c2ccc(F)cc2c1-c1nc2c3cccnc3c3ncccc3c2[nH]1 ?
Result: n

###

- System: 317291-083-R-J1-PDC complex spheroids, viability
- METHOD: Anticancer human tumor 317291-083-R-J1-PDC cell line growth inhibition [GQUAD]; active means viability on the fitted dose curve at most 10% of control; inactive means the rest;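 note: spheroids exposed to compounds for one week before readout; percent viability relative to DMSO vehicle wells taken as 100%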
- CONDITION SUMMARY: second compound 10 µM; first compound 1 µM
Entry note: the call must match one of class 1 = active, class 0 = inactive

Previously resolved entries follow.
| COMPOUND | TARGET OR TEST SYSTEM | CLASS NAME |
| --- | --- | --- |
| Nc1ccn(C2OC(CO)C(O)C2(F)F)c(=O)n1 (stereo not drawn) + CN(C)c1ccc(Nc2c3ccc(NC(=O)CCN4CCCC4)cc3nc3cc(NC(=O)CCN4CCCC4)ccc23)cc1 | 317291-083-R-J1-PDC complex spheroids, viability | class 1 |
| O=C(c1cc(Cc2n[nH]c(=O)c3ccccc23)ccc1F)N1CCN(C(=O)C2CC2)CC1 + CN(C)c1ccc(Nc2c3ccc(NC(=O)CCN4CCCC4)cc3nc3cc(NC(=O)CCN4CCCC4)ccc23)cc1 | 317291-083-R-J1-PDC complex spheroids, viability | class 0 |

Continue with the next compound.
Q: Outcome logged for CC1COCCN1c1cc(C2(S(C)(=N)=O)CC2)nc(-c2ccnc3[nH]ccc23)n1 (stereo not drawn) + CN(C)c1ccc(Nc2c3ccc(NC(=O)CCN4CCCC4)cc3nc3cc(NC(=O)CCN4CCCC4)ccc23)cc1 in this assay:
Result: class 1

###

- System: 317291-083-R-J1-PDC complex spheroids, viability
- METHOD: Anticancer human tumor 317291-083-R-J1-PDC cell line growth inhibition [GQUAD]; active means viability on the fitted dose curve at most 10% of control; inactive means the rest;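 note: spheroids exposed to compounds for one week before readout; percent viability relative to DMSO vehicle wells taken as 100%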
- CONDITION SUMMARY: second compound 0.0316 µM; first compound 10 µM
- Source text: DNA G-quadruplex Stabilizer Agents in Combinations in Complex Spheroids A high-throughput screen of multi-cell type tumor spheroids was designed to identify active combinations of DNA G-quadruplex stabilizer agents and targeted small molecules. […] Compounds. […] If the clinical Cmax for an agent had not been determined, the highest concentration tested was 10 microM. […]
# valid calls are 1 (active), 0 (inactive); nothing else

| COMPOUND | CLASS NAME |
| --- | --- |
| CCCS(=O)(=O)Nc1ccc(F)c(C(=O)c2c[nH]c3ncc(-c4ccc(Cl)cc4)cc23)c1F + CN(C)c1ccc(Nc2c3ccc(NC(=O)CCN4CCCC4)cc3nc3cc(NC(=O)CCN4CCCC4)ccc23)cc1 | 0 |

Q: Can you look up the reported call for COc1cccc2c1C(=O)c1c(O)c3c(c(O)c1C2=O)CC(O)(C(=O)CO)CC3OC1CC(N)C(O)C(C)O1 (stereo not given) + Cc1cnc(CNC(=O)c2c(=O)c3ccc(N4CCCN(C)CC4)nc3n3c2sc2ccccc23)cn1 for me?
Result: 1

Q: Kindly provide the recorded test outcome for the following compound: CC1COCCN1c1cc(C2(S(C)(=N)=O)CC2)nc(-c2ccnc3[nH]ccc23)n1 (stereo not given) + CN(C)c1ccc(Nc2c3ccc(NC(=O)CCN4CCCC4)cc3nc3cc(NC(=O)CCN4CCCC4)ccc23)cc1
Result: 0

Q: Call for entry CC1COCCN1c1cc(C2(O)CC3CCC(C2)O3)c2cnn(-c3ccn[nH]3)c2n1 (stereo not given) + CN(C)c1ccc(Nc2c3ccc(NC(=O)CCN4CCCC4)cc3nc3cc(NC(=O)CCN4CCCC4)ccc23)cc1 :
Result: 1

Q: What is the recorded call for this compound in the test? C=CC(=O)N1CCN(c2nc(=O)n(-c3c(C)ccnc3C(C)C)c3nc(-c4c(O)cccc4F)c(F)cc23)C(C)C1 (stereo not given) + Cc1cnc(CNC(=O)c2c(=O)c3ccc(N4CCCN(C)CC4)nc3n3c2sc2ccccc23)cn1
Result: 0
